Molecular target: NRAS Q61K (Homo sapiens (Human), UniProt P01111+P62937, Q61K)
Sequence (P01111 whole entry Q61K): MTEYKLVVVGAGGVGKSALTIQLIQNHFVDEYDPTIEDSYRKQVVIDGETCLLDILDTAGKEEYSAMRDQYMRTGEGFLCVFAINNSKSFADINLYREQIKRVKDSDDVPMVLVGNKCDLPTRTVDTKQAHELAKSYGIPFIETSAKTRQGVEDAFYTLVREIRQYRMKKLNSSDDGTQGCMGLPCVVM
Sequence (P62937 whole entry): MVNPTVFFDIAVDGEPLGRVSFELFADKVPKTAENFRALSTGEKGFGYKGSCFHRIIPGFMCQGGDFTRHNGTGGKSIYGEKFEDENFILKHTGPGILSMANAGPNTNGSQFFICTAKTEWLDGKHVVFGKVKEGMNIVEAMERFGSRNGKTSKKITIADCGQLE
Assay: Ras-Raf (BRAF RBD) disruption / FRET / MOA assay, NRAS Q61K
Type: biochemical
Conditions: NRAS Q61K; Ras-Raf disruption/FRET/MOA assay; read-out: IC50* NRAS Q61K FRET data
Method: The purpose of this biochemical assay is to measure the ability of test compounds to facilitate ternary complex formation between a nucleotide-loaded Ras isoform and cyclophilin A; the resulting ternary complex disrupts binding to a BRAF^RBD construct, inhibiting Ras signaling through a RAF effector. […]. Compound is present in plate wells as a 10-point 3-fold dilution series starting at a final concentration of 30 μM. […]
outcome.measure: IC50

Q. # query: IC50 | item CCn1c(-c2cccnc2[C@H](C)OC)c2c3cc(ccc31)-c1csc(n1)C[C@H](NC(=O)[C@H](C(C)C)N(C)C(=O)N1CCC3(CC1)CN(C(=O)/C=C/CF)C3)C(=O)N1CCC[C@H](N1)C(=O)OCC(C)(C)C2 (atropisomer, axis not shown) [Example A622] | system: NRAS Q61K (Homo sapiens (Human), UniProt P01111+P62937, Q61K)
A. 10 to 100 nM

Q. And then C=CC(=O)N1CC[C@]2(CCN2C(=O)N(C)[C@H](C(=O)N[C@H]2Cc3nc(cs3)-c3ccc4c(c3)c(c(-c3cccnc3[C@H](C)OC)n4CC)CC(C)(C)COC(=O)[C@@H]3CCCN(N3)C2=O)C(C)C)C1 (atropisomer, axis not shown) [Example A662] , what is it?
A. 10 to 100 nM

Q. Same question for C=CC(=O)N1CCC2(CC1)CCN2C(=O)N(C)[C@H](C(=O)N[C@H]1Cc2nc(cs2)-c2ccc3c(c2)c(c(-c2cccnc2[C@H](C)OC)n3CC)CC(C)(C)COC(=O)[C@@H]2CCCN(N2)C1=O)C(C)C (atropisomer, axis not shown) [Example A678] please.
A. 10 to 100 nM

Q. And then C=CC(=O)N1C[C@H](C)N(C(=O)N(C)[C@H](C(=O)N[C@H]2Cc3nc(cs3)-c3ccc4c(c3)c(c(-c3cccnc3[C@H](C)OC)n4CC)CC(C)(C)COC(=O)[C@@H]3CCCN(N3)C2=O)C(C)C)C[C@@H]1C (atropisomer, axis not shown) [Example A385] , what is it?
A. 10 to 100 nM

Q. What do you get for CCn1c(-c2cccnc2[C@H](C)OC)c2c3cc(ccc31)N1CCO[C@@H](C[C@H](NC(=O)[C@H](C(C)C)N(C)C(=O)C3(F)CCN(C(=O)C#CC(C)(C)N(C)C)CC3)C(=O)N3CCC[C@H](N3)C(=O)OCC(C)(C)C2)C1 (atropisomer, axis not shown) [Example A647] ?
A. 1000 to 10000 nM

Q. Also need C=CC(=O)N1CCC2(CCN(C(=O)N(C)[C@H](C(=O)N[C@H]3Cc4cccc(c4)-c4ccc5c(c4)c(c(-c4cccnc4[C@H](C)OC)n5CC)CC(C)(C)COC(=O)[C@@H]4CCCN(N4)C3=O)C(C)C)CC2)C1 (atropisomer, axis not shown) [Example A554] , thanks.
A. 100 to 1000 nM

Q. Cool, now CCn1c(-c2cccnc2[C@H](C)OC)c2c3cc(ccc31)-c1cccc(c1)C[C@H](NC(=O)[C@@H](COC1CN(C(=O)C#C[C@@H]3OCCCN3C)C1)C(C)C)C(=O)N1CCC[C@H](N1)C(=O)OCC(C)(C)C2 (atropisomer, axis not shown) [Example A648]
A. > 10000 nM

Q. Note, next up: CCn1c(-c2cccnc2[C@H](C)OC)c2c3cc(ccc31)N1CCO[C@@H](C[C@H](NC(=O)[C@@H](COC3CN(C(=O)C#CC(C)(C)N(C)C)C3)C(C)C)C(=O)N3CCC[C@H](N3)C(=O)OCC(C)(C)C2)C1 (atropisomer, axis not shown) [Example A377]
A. > 10000 nM

Q. And for C=CC(=O)N1CC[C@H](C(=O)N(C)[C@H](C(=O)N[C@H]2Cc3cccc(c3)-c3ccc4c(c3)c(c(-c3cccnc3[C@H](C)OC)n4CC)CC(C)(C)COC(=O)[C@@H]3CCCN(N3)C2=O)C(C)C(F)(F)F)C1 (some centres unmarked) [Example A641] ?
A. 1000 to 10000 nM

Q. How about this molecule: CCn1c(-c2cccnc2[C@H](C)OC)c2c3cc(ccc31)N1CCC[C@@H](C[C@H](NC(=O)[C@H](C(C)C)N(C)C(=O)[C@H]3CCN(C(=O)C#CC(C)(C)N4CCC4)C3)C(=O)N3CCC[C@H](N3)C(=O)OCC(C)(C)C2)C1 (atropisomer, axis not shown) [Example A617]
A. > 10000 nM

Q. Also, C=CC(=O)N1CCN(C(=O)N(C)[C@H](C(=O)N[C@H]2Cc3nc(cs3)-c3ccc4c(c3)c(c(-c3cccnc3[C@H](C)OC)n4CC)CC(C)(C)COC(=O)[C@@H]3CCCN(N3)C2=O)C(C)C)CC1 (atropisomer, axis not shown) [Example A491] please.
A. 10 to 100 nM

Q. Repeat with CCn1c(-c2cccnc2[C@H](C)OC)c2c3cc(ccc31)-c1csc(n1)C[C@H](NC(=O)[C@H](C(C)C)N(C)C(=O)N1CCC3(CC1)CN(C(=O)/C=C/CN1CCCCC1)C3)C(=O)N1CCC[C@H](N1)C(=O)OCC(C)(C)C2 (atropisomer, axis not shown) [Example A670]
A. 100 to 1000 nM

Q. Now consider C=CC(=O)N(C)C[C@H]1CCN(C(=O)N(C)[C@H](C(=O)N[C@H]2Cc3nc(cs3)-c3ccc4c(c3)c(c(-c3cccnc3[C@H](C)OC)n4CC)CC(C)(C)COC(=O)[C@@H]3CCCN(N3)C2=O)C(C)C)C1 (atropisomer, axis not shown) [Example A653] .
A. 10 to 100 nM

Q. Entry to check: CCn1c(-c2cccnc2[C@H](C)OC)c2c3cc(ccc31)-c1cccc(c1)C[C@H](NC(=O)[C@@H](COC1CN(C(=O)C#CC(C)(C)O)C1)C(C)C)C(=O)N1CCC[C@H](N1)C(=O)OCC(C)(C)C2 (atropisomer, axis not shown) [Example A708]
A. > 10000 nM

----------
The following compounds are shown together with reported IC50 values.
Tested on: NCI-H358 (K-Ras G12C)
Assay: CellTiter-Glo cell viability assay, NCI-H358
Format: cell-based, human
Details: Homo sapiens, NCI-H358, 120 h, NCI-H358, 5-day treatment; class symbols; read-out: Additional H358 Cell Viability assay data (K-Ras G12C, IC50)

Use these answered entries as a reference point.
C=CC(=O)N1CC[C@H](C(=O)N(C)[C@H](C(=O)N[C@H]2Cc3cc(O)cc(c3)-c3ccc4c(c3)c(c(-c3ncccc3COC)n4CC)CC(C)(C)COC(=O)[C@@H]3CCCN(N3)C2=O)C(C)C)C1	100 to 1000 nM
C=CC(=O)N1CC2(C1)CN(C(=O)N(C)[C@H](C(=O)N[C@H]1Cc3nc(cs3)-c3ccc4c(c3)c(c(-c3cccnc3[C@H](C)OC)n4CC)CC(C)(C)COC(=O)[C@@H]3CCCN(N3)C1=O)C(C)C)CCO2 (atropisomer, axis not shown)	10 to 100 nM
CO[C@@H](C)c1ncccc1-c1c2c3cc(ccc3n1CC(F)(F)F)-c1cccc(c1)CN(NC(=O)[C@@H](COC1CN(C(=O)C#CC(C)(C)N(C)C)C1)C(C)C)C(=O)N1CCC[C@H](N1)C(=O)OCC(C)(C)C2 (atropisomer, axis not shown)	< 10 nM
C=CC(=O)N1CC[C@H](C(=O)N(C)[C@H](C(=O)N[C@H]2Cc3cccc(c3)-c3ccc4c(c3)c(c(-c3cccnc3[C@H](C)OC)n4CC)CC(C)(C)COC(=O)[C@@H]3CCCN(N3)C2=O)[C@@H](C)C(F)(F)F)C1 (atropisomer, axis not shown)	10 to 100 nM

Q. Give its IC50 value. Item: CCn1c(-c2cccnc2[C@H](C)OC)c2c3cc(ccc31)-c1csc(n1)C[C@H](NC(=O)C[C@@H]1COC3(CN(C(=O)C#CC(C)(C)N(C)C)C3)O1)C(=O)N1CCC[C@H](N1)C(=O)OCC(C)(C)C2 (atropisomer, axis not shown)
A. < 10 nM

Q. Try this compound too: C=CC(=O)N1CCOC2(C1)CN(C(=O)N(C)[C@H](C(=O)N[C@H]1Cc3cccc(c3)-c3ccc4c(c3)c(c(-c3cccnc3[C@H](C)OC)n4CC(F)(F)F)CC(C)(C)COC(=O)[C@@H]3CCCN(N3)C1=O)C(C)C)C2 (atropisomer, axis not shown)
A. 10 to 100 nM

Q. Record: C=CC(=O)N1CC[C@H](C(=O)N(C)[C@H](C(=O)N[C@H]2Cc3nc(cs3)-c3ccc4c(c3)c(c(-c3cccnc3[C@H](C)OC)n4CC)CC(C)(C)C/C=C/[C@@H]3CCCN(N3)C2=O)C(C)C)C1 (atropisomer, axis not shown)
A. > 1000 nM

Q. Now consider C=CC(=O)N1CCC[C@]12CCN(C(=O)N(C)[C@H](C(=O)N[C@H]1Cc3nc(cs3)-c3ccc4c(c3)c(c(-c3cccnc3[C@H](C)OC)n4CC)CC(C)(C)COC(=O)[C@@H]3CCCN(N3)C1=O)C(C)C)C2 (atropisomer, axis not shown) and answer again.
A. 100 to 1000 nM
